tested-target: p38 alpha (Homo sapiens, UniProt Q16539)
Construct: purchased Invitrogen PV3304
Sequence (Q16539 whole entry): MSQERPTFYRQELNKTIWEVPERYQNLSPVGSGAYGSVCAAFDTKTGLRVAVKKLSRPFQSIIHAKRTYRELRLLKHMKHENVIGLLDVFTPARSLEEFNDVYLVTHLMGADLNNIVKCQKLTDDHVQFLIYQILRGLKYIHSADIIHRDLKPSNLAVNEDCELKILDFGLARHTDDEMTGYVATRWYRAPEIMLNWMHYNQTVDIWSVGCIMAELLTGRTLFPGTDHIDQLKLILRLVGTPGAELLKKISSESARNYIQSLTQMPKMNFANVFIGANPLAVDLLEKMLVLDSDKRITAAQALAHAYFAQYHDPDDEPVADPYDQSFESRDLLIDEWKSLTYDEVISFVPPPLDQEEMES
protocol-details: P38 alpha enzyme inhibition assay (Alphascreen kinase activity assay)
Assay type: biochemical
condition-context: 100 pM p38 alpha, 2 hours preincubation at 25° C., 250 μM ATP, ATF-2 fusion protein; read-out: p38α inhibition
pIC50: −log10 of the molar value. Structures can show the parent of a compound that is named as a salt.
quantity-kind: pIC50

CC(C)(C)c1cc(NC(=O)N[C@H]2CC[C@@H](Oc3ccc4nnc(C(C)(C)C)n4c3)c3ccccc32)nc(CN2CCNC(=O)C2)n1 [Example 113, formate salt]    8.00 to 9.00
COC(C)(C)c1nnc2ccc(O[C@@H]3CC[C@H](NC(=O)Nc4cc(C(C)(C)C)nc(C(=O)NCC(C)(C)N(C)C)n4)c4ccccc43)cn12 [Example 141]    8.00 to 9.00
COCC(C)(C)c1nnc2ccc(O[C@@H]3CC[C@H](NC(=O)Nc4cc(C(C)(C)C)nc(C(=O)NCCN(C)C)n4)c4ccccc43)cn12 [Example 54]    > 9.00
CCC(C)(C)c1nnc2ccc(O[C@@H]3CC[C@H](NC(=O)Nc4cc(C(C)(C)C)nc(C(=O)NCCN(C)CCO)n4)c4ccccc43)cn12 [Example 2]    > 9.00
CCN(CC)c1nnc2ccc(O[C@@H]3CC[C@H](NC(=O)Nc4cc(C(C)(C)C)nc(C(=O)NCC(C)(C)N(C)C)n4)c4ccccc43)cn12 [Example 143]    > 9.00

Give one value of pIC50 per listed compound.
1. CN(C)C(C)(C)CNC(=O)c1nc(NC(=O)N[C@H]2CC[C@@H](Oc3ccc4nnc(C(C)(C)C)n4c3)c3ccccc32)cc(C(C)(C)C)n1 [Example 117]
2. CN(C)CCNC(=O)c1nc(NC(=O)N[C@H]2CC[C@@H](Oc3ccc4nnc(C5(C)COC5)n4c3)c3ccccc32)cc(C(C)(C)C)n1 [Example 55]
3. CC(C)(C)c1cc(NC(=O)N[C@H]2CC[C@@H](Oc3ccc4nnc(C5CCCC5)n4c3)c3ccccc32)nc(C(=O)NCCN2CCOCC2)n1 [Example 75]
4. COC(C)(C)c1nnc2ccc(O[C@@H]3CC[C@H](NC(=O)Nc4cc(C(C)(C)C)nc(C(=O)NCCN(C)CCO)n4)c4ccccc43)cn12 [Example 125]
5. CN(C)CCNC(=O)c1nc(NC(=O)N[C@H]2CC[C@@H](Oc3ccc4nnc([C@@H]5COCCN5C)n4c3)c3ccccc32)cc(C(C)(C)C)n1 [Example 214]

1. > 9.00
2. 8.00 to 9.00
3. 8.00 to 9.00
4. 8.00 to 9.00
5. 8.00 to 9.00

Give one value of pIC50 per listed compound.
1. COC1CCN(CCNC(=O)c2cc(NC(=O)N[C@H]3CC[C@@H](Oc4ccc5nnc(C(C)(C)C)n5c4)c4ccccc43)cc(C(C)(C)C)n2)CC1 [Example 203]
2. CC(C)N1CCC[C@H]1c1nnc2ccc(O[C@@H]3CC[C@H](NC(=O)Nc4cc(C(C)(C)C)ncn4)c4ccccc43)cn12 [Example 47, Hydrochloride]

8.00 to 9.00
> 9.00

###

tested-target: p38 alpha (Homo sapiens)
protocol-details: P38 alpha enzyme inhibition assay (Alphascreen kinase activity assay)
condition-context: 100 pM p38 alpha, 2 hours preincubation at 25° C., 250 μM ATP, ATF-2 fusion protein; read-out: p38α inhibition
quantity-kind: IC50

# example entries with known answers
CN(C)CCNC(=O)c1nc(NC(=O)N[C@H]2CC[C@@H](Oc3ccc4nnc(C(=O)N5CCOCC5)n4c3)c3ccccc32)cc(C(C)(C)C)n1    1 to 10 nM
CN1CC(C(=O)NCc2nc(NC(=O)N[C@H]3CC[C@@H](Oc4ccc5nnc(C(C)(C)C)n5c4)c4ccccc43)cc(C(C)(C)C)n2)C1    < 1 nM

Look up IC50: COC(C)(C)c1nnc2ccc(O[C@@H]3CC[C@H](NC(=O)Nc4cc(C(C)(C)C)nc(COCCN5CCOCC5)n4)c4ccccc43)cn12 1 to 10 nM

###

Would you kindly list IC50 for each of these compounds?
tested-target: p38 alpha (Homo sapiens, UniProt Q16539)
protocol-details: P38 alpha enzyme inhibition assay (Alphascreen kinase activity assay)
condition-context: 100 pM p38 alpha, 2 hours preincubation at 25° C., 250 μM ATP, ATF-2 fusion protein; read-out: p38α inhibition

CC(C)(C)c1cc(NC(=O)N[C@H]2CC[C@@H](Oc3ccc4nnc(C5(C)CCCC5)n4c3)c3ccccc32)nc(C(=O)NCCN2CCOCC2)n1    < 1 nM
CNC(=O)c1cc(NC(=O)N[C@H]2CC[C@@H](Oc3ccc4nnc([C@]5(C)CCCN5C)n4c3)c3ccccc32)cc(C(C)(C)C)n1    1 to 10 nM

Give one value of IC50 per listed compound.
1. CC[C@H](C)c1nnc2ccc(O[C@@H]3CC[C@H](NC(=O)Nc4cc(C(C)(C)C)nc(C(=O)NCCN(C)CC)n4)c4ccccc43)cn12
2. COCC(C)(C)c1nnc2ccc(O[C@@H]3CC[C@H](NC(=O)Nc4cc(C(C)(C)C)nc(C(=O)NCC(C)(C)N5CCN(C)CC5)n4)c4ccccc43)cn12

< 1 nM
< 1 nM

Give one value of IC50 per listed compound.
1. COC(C)(C)c1nnc2ccc(O[C@@H]3CC[C@H](NC(=O)Nc4cc(C(=O)NCCN(C)C)nc(C(C)(C)C)c4)c4ccccc43)cn12
2. CN1CCC[C@@]1(C)c1nnc2ccc(O[C@@H]3CC[C@H](NC(=O)Nc4cc(CO)nc(C(C)(C)C)c4)c4ccccc43)cn12

["1 to 10 nM", "< 1 nM"]

###

Would you kindly list pIC50 for each of these molecules?
tested-target: UniProtKB Q16539
protocol-details: P38 alpha enzyme inhibition assay (Alphascreen kinase activity assay)
condition-context: 100 pM p38 alpha, 2 hours preincubation at 25° C., 250 μM ATP, ATF-2 fusion protein; read-out: p38α inhibition
Method: P38 Alpha Enzyme Inhibition Assay The inhibitory activity of compounds was determined using an Alphascreen® (Perkin Elmer) based kinase activity assay. […] Detection was performed by measuring luminescence following the addition of Alphascreen Donor beads (Perkin Elmer 6765300) and Protein A Alphascreen Acceptor beads (Perkin Elmer 6760137), both at a final concentration of 20 ug/ml. IC50 values were determined from concentration-response curves.
pIC50: −log10 of the molar value. Where a name gives a salt, the structure may show the parent alone.

# example entries with known answers
COCCN(C)C(C)(C)CNC(=O)c1nc(NC(=O)N[C@H]2CC[C@@H](Oc3ccc4nnc(C(C)(C)OC)n4c3)c3ccccc32)cc(C(C)(C)C)n1    8.00 to 9.00
COCCN(C)CCNC(=O)c1nc(NC(=O)N[C@H]2CC[C@@H](Oc3ccc4nnc(C(C)C)n4c3)c3ccccc32)cc(C(C)(C)C)n1    8.00 to 9.00
CN(C)CCNC(=O)c1cc(NC(=O)N[C@H]2CC[C@@H](Oc3ccc4nnc(C(C)(C)N5CCN(C)CC5)n4c3)c3ccccc32)cc(C(C)(C)C)n1 [Example 199, formate salt]    8.00 to 9.00
COCC(C)(C)c1nnc2ccc(O[C@@H]3CC[C@H](NC(=O)Nc4cc(C(C)(C)C)nc(C(=O)NCCN(C)CCO)n4)c4ccccc43)cn12    > 9.00
CN1CCN(CCNC(=O)c2nc(NC(=O)N[C@H]3CC[C@@H](Oc4ccc5nnc(C(C)(C)C)n5c4)c4ccccc43)cc(C(C)(C)C)n2)CC1    > 9.00
CC(C)(C)c1cc(NC(=O)N[C@H]2CC[C@@H](Oc3ccc4nnc(C(C)(C)C)n4c3)c3ccccc32)nc(C(=O)NCCN2CCCOCC2)n1    8.00 to 9.00

Give one value of pIC50 per listed molecule.
1. CN(C)C(C)(C)CNC(=O)c1nc(NC(=O)N[C@H]2CC[C@@H](Oc3ccc4nnc(C5(C)CCCC5)n4c3)c3ccccc32)cc(C(C)(C)C)n1
2. CCC(CC)c1nnc2ccc(O[C@@H]3CC[C@H](NC(=O)Nc4cc(C(C)(C)C)nc(C(=O)NCCN(C)C)n4)c4ccccc43)cn12
3. CN(C)CCNC(=O)c1nc(NC(=O)N[C@H]2CC[C@@H](Oc3ccc4nnc(C(C)(C)C)n4c3)c3ccccc32)cc(C(C)(C)C)n1

> 9.00
> 9.00
> 9.00

Give one value of pIC50 per listed molecule.
1. CN1CCC[C@@]1(C)c1nnc2ccc(O[C@@H]3CC[C@H](NC(=O)Nc4cc(NS(C)(=O)=O)nc(C(C)(C)C)c4)c4ccccc43)cn12
2. CCS(=O)(=O)Nc1cc(NC(=O)N[C@H]2CC[C@@H](Oc3ccc4nnc([C@]5(C)CCCN5C)n4c3)c3ccccc32)cc(C(C)(C)C)n1
3. Cc1ncc(C(C)(C)C)cc1NC(=O)N[C@H]1CC[C@@H](Oc2ccc3nnc([C@]4(C)CCCN4C)n3c2)c2ccccc21

1: > 9.00; 2: > 9.00; 3: > 9.00

Give one value of pIC50 per listed molecule.
1. CN(C)CCC(=O)NCc1nc(NC(=O)N[C@H]2CC[C@@H](Oc3ccc4nnc(C(C)(C)C)n4c3)c3ccccc32)cc(C(C)(C)C)n1
2. CO[C@@H](C)c1nnc2ccc(O[C@@H]3CC[C@H](NC(=O)Nc4cc(C(C)(C)C)nc(C(=O)NCCN(C)C)n4)c4ccccc43)cn12
3. C[C@H]1CCCCN1c1nnc2ccc(O[C@@H]3CC[C@H](NC(=O)Nc4cc(C(C)(C)C)nc(C(=O)NCCN(C)C)n4)c4ccccc43)cn12

1. > 9.00
2. 8.00 to 9.00
3. > 9.00

Where do the numbers come from? From patent US10364245B2.
